System: U-251
Assay: NCI tumour cell line growth inhibition, 48 h
Calls of active or inactive are those of the source. No stated cut-off is given here; in the data, active = GI50 up to about 1.1 µM and inactive = higher.
readout type: GI50

Some entries whose results are on file:
COc1ccc(C(=O)C2=NON3OC23C(=O)c2ccc(OC)cc2)cc1 (stereo not given) : 16 µM (inactive)
O=C1CCC(Cc2ccc(Cl)cc2Cl)C(=O)N1 (stereo not given) : > 100 µM (inactive)
O=C1CSC(c2cccc([N+](=O)[O-])c2)N1c1ccc(-c2ccc(-n3c(-c4ccccc4)nc4ccccc4c3=O)cc2)cc1 (stereo not given) : 33.5 µM (inactive)
O=[As]O : 23.2 µM (inactive)
CC(=O)OCC1OC(n2cc(I)c(=O)[nH]c2=O)C(OC(C)=O)C(OC(C)=O)C1OC(C)=O (stereo not given) : > 100 µM (inactive)
C[C@]12CCC(=O)C=C1CC[C@@H]1[C@@H]2[C@@H](O)C[C@@]2(C)[C@H]1CC[C@]2(O)C(=O)CO [HYDROCORTISONE] : > 100 µM (inactive)
O=C(Cc1ccccc1)NN1C(=O)C(Cl)C1c1cc(Br)ccc1O (stereo not given) : 3.69 µM (inactive)
CO/C(=N/N1CC1C(F)(F)F)c1ccncc1 (stereo not given) : > 100 µM (inactive)
CCOC(=O)C(NC(=O)CC)(Nc1ccc(F)cc1F)C(F)(F)F (stereo not given) : > 100 µM (inactive)
C=CC(C)(O)CCC1C(=C)C(O)CC2C(C)(C)CCCC12C (stereo not given) : 15.5 µM (inactive)

Short answer on U-251 for CC(=O)ON(C(C)=O)c1ccc(-c2nc3ccccc3s2)cc1C , GI50: 10.4 µM (inactive)

Short answer on U-251 for COC1C=COC2(C)Oc3c(C)c(O)c4c(c3C2=O)/C(=N/C2CCC(O)OC2C)C=C(NC(=O)/C(C)=C\C(=O)C2CC2C(O)C(C)C(O)C(C)C(OC(C)=O)C1C)C4=O (stereo not given) , GI50: 2.77 µM (inactive)

Short answer on U-251 for CCOC(=O)CNC(=O)C(CCC(=O)N(C)O)NC(=O)CCC(N)C(=O)O (stereo not given) , GI50: > 100 µM (inactive)

Short answer on U-251 for CN1C(=O)C(/C=N/NC(=O)c2cccnc2)C(N)N(C)C1=O (stereo not given) , GI50: > 100 µM (inactive)

Short answer on U-251 for COC(=O)[C@]1(C)CCC[C@]2(C)[C@H]3CC[C@]4(C(C)C)OO[C@@H](O4)[C@]34O[C@@H]4C[C@H]21 , GI50: 3.65 µM (inactive)

Short answer on U-251 for CCCCCCCC(=O)OC[n+]1ccc(-c2c(COC(=O)NC(C)C)c(COC(=O)NC(C)C)c3n2CCC3)cc1 , GI50: 51.5 µM (inactive)

Short answer on U-251 for CCOC(=O)c1c(NC(=O)c2ccccc2)sc2c1CCCC2 , GI50: > 100 µM (inactive)

Short answer on U-251 for O=C(O)CCCSC(=O)Nc1ccc(/N=N/c2ccccc2)cc1 , GI50: > 100 µM (inactive)

Short answer on U-251 for CC(=O)O/C=C\OC1CCCC1(c1ccccc1)c1ccccc1 (stereo not given) , GI50: 3.52 µM (inactive)

Short answer on U-251 for CCSC1=CC(Cc2ccc(OC)cc2)N(C(=O)OC)C1 (stereo not given) , GI50: > 100 µM (inactive)

---

System: RXF 393
Experiment: NCI tumour cell line growth inhibition, 48 h
Active and inactive are the calls of the source. Cut-off read from the data, not from the text of the source: active = GI50 up to about 1.1 µM and inactive = higher.
Mark one answer only. Choices: active, inactive

O=C(/C=C1\C[C@H]2C=Nc3ccccc3C(=O)N2C1)NCCCNC(=O)/C=C1\C[C@H]2C=Nc3ccccc3C(=O)N2C1 : inactive
Cc1ccc(NC(c2ccccc2)P(=O)(c2ccccc2)c2ccccc2)cc1 (stereo not given) : inactive
CC(C)S(=O)(=O)ON1C(=O)c2ccc([N+](=O)[O-])cc2C1=O : inactive
Cc1ccc([N+](=O)[O-])cc1/N=N/C(=O)NNc1cc([N+](=O)[O-])ccc1C : inactive
COc1ccc2c(c1)N(C(C)=O)CN1C(=O)CCC21 (stereo not given) : inactive

Q: What classification did Cn1c2c(c3ccccc31)CCN(CCCCN1CCCCC1)C2=O end up with in this test?
Result: inactive

Q: What classification did Cc1nc(C)c(C(=O)Nc2cccc3c2C(=O)NC3=O)cc1C(=O)Nc1cccc2c1C(=O)NC2=O end up with in this test?
Result: inactive

Q: What classification did COc1cccc(NC(=O)c2c(N)n[nH]c2SC)c1 end up with in this test?
Result: inactive

Q: What classification did CC1(C)C2CCC3(OCCO3)C1C(O)C2 (stereo not given) end up with in this test?
Result: inactive

Q: What classification did CC(=O)c1sc(Nc2ccc(Cl)c(Cl)c2)nc1C end up with in this test?
Result: inactive

Q: What classification did CC1=NN(C(=O)CC(=O)N(C(=O)c2ccccc2Cl)c2ccc(C)cc2)C(=O)C1/N=N/c1ccc([N+](=O)[O-])cc1 (stereo not given) end up with in this test?
Result: inactive

Q: What classification did O=C1c2ccccc2C(O)(O)C1(O)C1(O)C(=O)c2ccccc2C1(O)O (stereo not given) end up with in this test?
Result: inactive

Q: What classification did CC(C)(Oc1ccc(C(=O)c2ccc(Cl)cc2)cc1Cl)C(=O)N1CCN(CCO)CC1 end up with in this test?
Result: inactive

Q: What classification did Clc1ccc(-c2cc(-c3cc(-c4ccc(Cl)cc4)[nH]n3)[nH]n2)cc1 end up with in this test?
Result: inactive

Q: What classification did CCOP(=O)(OCC)/C(C#N)=C\c1ccsc1 end up with in this test?
Result: inactive

Q: What classification did O=C(/C=C/c1ccc(O)cc1)c1ccc2c(c1)OCO2 end up with in this test?
Result: inactive

Q: What classification did CC[C@@]1(O)C(=O)OCc2c1cc1n(c2=O)Cc2cc3c(OC)cccc3nc2-1 end up with in this test?
Result: active

---

Readings of GI50 for the listed compounds
System: OVCAR-5
Assay: NCI tumour cell line growth inhibition, 48 h
Calls of active or inactive are those of the source. Rule as the data show it: active = GI50 up to about 1.1 µM and inactive = higher.

Some entries whose results are on file:
O=c1c2ccccc2nc2n1NC(c1c(Cl)cccc1Cl)N2c1cccc(Cl)c1 (configuration not stated) : 4.54 µM (inactive)
CC1(C)N=[N+]([O-])C1(C)C : > 100 µM (inactive)
O=C(O)CCCSC(=O)Nc1ccc(/N=N/c2ccccc2)cc1 : > 100 µM (inactive)
COC(=O)c1ccc(C)cc1CC1Cc2cccc(C)c2C1=O (configuration not stated) : 14 µM (inactive)
Nc1cc2c(C3OC(CO)C(O)C3O)n[nH]c2c(=S)[nH]1 (configuration not stated) : > 100 µM (inactive)
O=C1CC(c2ccccc2)[S+]([O-])c2ccccc2N1 (configuration not stated) : > 100 µM (inactive)

Short answer on OVCAR-5 for COc1cc(CNc2nc3ccccc3n2Cc2ccccc2)cc(CN2CCOCC2)c1O , GI50: 26.5 µM (inactive)

Short answer on OVCAR-5 for COc1ccc(OC)c(CC(=O)c2ccc(O)c(C(=O)NCCc3ccc(F)cc3)c2)c1 , GI50: 7.36 µM (inactive)

---

Test system: SK-MEL-2
Assay: NCI tumour cell line growth inhibition, 48 h
Calls of active or inactive are those of the source. No stated cut-off is given here; in the data, active = GI50 up to about 1.1 µM and inactive = higher.
readout type: GI50

O=C(O)c1nc2nc(Cl)c(Cl)nc2[nH]1 : > 100 µM (inactive)
Cc1ccc(C(=O)/C=C2\Nc3ccccc3SC2=O)c(C)c1 : 42.1 µM (inactive)
CC(C)(C)OC(=O)NCCNC(=O)CN(CC(=O)O)C1CCCCC1N(CC(=O)O)CC(=O)O (stereo not given) : > 100 µM (inactive)
CCOC(=O)/C(C#N)=C/c1ccnc2ccccc12 : > 100 µM (inactive)
CCCCOC(=O)C(=O)C(CCC(=O)c1ccc(C)cc1)C(=O)C=C(C)C (stereo not given) : > 100 µM (inactive)

Item: Cc1cc(/C=C/c2cc[n+](C)c3ccccc23)c(O)c2ncccc12 | GI50: 2.67 µM (inactive)

Item: O=C1CSC(c2ccccc2O)N1c1ccc(Oc2ccc(Cl)cc2)c(Cl)c1 (stereo not given) | GI50: 24.3 µM (inactive)

Item: O=C(/C=C/c1ccccc1Cl)c1cccc2ccccc12 | GI50: 18.4 µM (inactive)

Item: CO[C@@H](c1ccccc1)[C@H](O)[C@@](O)(c1ccccc1)P(=O)(OC)OC | GI50: > 100 µM (inactive)

Item: Cn1c(=O)c(Br)c(C=O)n(CCO[N+](=O)[O-])c1=O | GI50: 3.59 µM (inactive)

Item: CCOC(=O)c1c(N2CCOCC2)[nH]c(=O)c(C(c2ccco2)c2c(O)c(C(=O)OCC)c(N3CCOCC3)[nH]c2=O)c1O | GI50: > 100 µM (inactive)

Item: O=C(CSc1nc2ccc(Cl)cc2c(=O)n1-c1ccccc1)N/N=C1\C(=O)Nc2ccc(F)cc21 | GI50: 1.95 µM (inactive)

Item: O=C(CC(C(=O)c1ccsc1)c1cccs1)c1ccsc1 (stereo not given) | GI50: 94 µM (inactive)

Item: COc1cccc(NC(=O)c2c(N)n[nH]c2SC)c1 | GI50: > 100 µM (inactive)

Item: Cc1nc(C)c(C(=O)Nc2cccc3c2C(=O)NC3=O)cc1C(=O)Nc1cccc2c1C(=O)NC2=O | GI50: > 100 µM (inactive)

Item: CC1=NC(C(=O)O)Cc2c1[nH]c1ccccc21 (stereo not given) | GI50: > 100 µM (inactive)

Item: c1ccc(CSP234N5CCN2CCN3CCN4CC5)c(CSP234N5CCN2CCN3CCN4CC5)c1 | GI50: > 100 µM (inactive)

src = ChEMBL document CHEMBL1201862
